test system: 786-0 renal; assay: NCI tumour cell line growth inhibition, 48 h
# TGI per record follows
EXPERIMENTAL_READOUT: TGI

>>> result("CN(C)NC1=NS(=O)(=O)c2cc3c(=O)n(C)[nH]c3cc2S1")
"> 10 µM"
>>> result("O=CC1OC(=O)c2cc(O)c(O)c(O)c2-c2c(cc(O)c(O)c2O)C(=O)OC1C1OC(=O)c2cc(O)c(O)c(O)c2-c2c(O)c(O)c3oc(=O)c4c(c(O)c(O)c5oc(=O)c2c3c54)-c2c(cc(O)c(O)c2O)C(=O)OCC1O (stereo not drawn)")
"42.6 µM"
>>> result("COc1cc(CC(=O)O)c([N+](=O)[O-])cc1OC")
"> 100 µM"
>>> result("CCOC(=O)c1cc([N+](=O)[O-])c(Sc2ncnc3nc[nH]c23)c([N+](=O)[O-])c1")
"7.98 µM"
>>> result("Cc1[nH]nc(C(=O)N/N=C/c2ccccc2Cl)c1N=NN(C)C")
"> 100 µM"
>>> result("O=C(Nc1cccc(-n2cc(-c3ccncc3)c(-c3ccc(Cl)c(O)c3)n2)c1)Nc1ccc(Cl)c(Cl)c1")
"> 32.5 µM"
>>> result("N#CCCN(c1ccc(C=O)cc1)S(=O)(=O)c1ccccc1")
"> 100 µM"
>>> result("CC(C)C(/C=C/c1ccc(Cl)cc1)=N\\NC(=O)N/N=C(/C=C/c1ccc(Cl)cc1)C(C)C")
"33.5 µM"

---

Documented TGI across a set of molecules
test system: HOP-92 NSCLC; experiment: NCI tumour cell line growth inhibition, 48 h
EXPERIMENTAL_READOUT: TGI (µM)

>>> quantitative_readout("N=c1oc2cc(O)ccc2cc1C(=O)Nc1cccc2ccccc12")
14.5
>>> quantitative_readout("C=C(C)COc1cc(NC(=S)OC(C)C)ccc1Cl")
26.7
>>> quantitative_readout("COC(=O)[C@]12CC[C@@H](C)[C@H](C)[C@@H]1C1=CC[C@@H]3[C@@](C)(CC#N)C4=C(C[C@@]3(C)[C@]1(C)CC2)OC[C@]4(C)C=O")
34.7
>>> quantitative_readout("COc1ccc(C=O)cc1OS(=O)(=O)C(F)(F)C(F)(F)C(F)(F)C(F)(F)F")
58.6
>>> quantitative_readout("CC[C@@H](C)/C=C(C)/C=C/C(=O)c1c(O)c(-c2ccc(O)cc2)cn(OC2CC(=O)CCC(C)OC(=O)CC2O)c1=O (stereo not given in full)")
18.6
>>> quantitative_readout("O=C(/C=C/C=C/c1ccc2c(c1)OCO2)N/N=C\\c1ccc(O)cc1O")
13.5
>>> quantitative_readout("COc1ncc(-c2ccc3nccc(C#CCCCCC(=O)NO)c3c2)cc1NS(=O)(=O)c1ccc(F)cc1F")
0.106
>>> quantitative_readout("Cc1ccccc1-n1c(CCl)nc2ccc(Br)cc2c1=O")
36
>>> quantitative_readout("CC(C)(C)CI")
61.4
>>> quantitative_readout("C[C@@H]1CC[C@@]2(C)[C@H](C)/C(=C\\COC(=O)/C=C/c3ccc(O)c(O)c3)CC[C@@]12C")
29.7
>>> quantitative_readout("CCOc1ccc2c(c1)C(=O)c1c-2n(CCCN=[N+]=[N-])c(=O)c2cc([N+](=O)[O-])ccc12")
46.7
>>> quantitative_readout("CCCCCCCCCCCCCCCC(=O)OC1C(O)C(O)C(O)C(O)C12CO2 (stereo not given)")
56.1
>>> quantitative_readout("CSC1=Nc2ccccc2N=C(c2ccccc2)C1")
85.3
>>> quantitative_readout("O=C(/C=C/c1cccc(Br)c1)N1CCN(CCOC(c2ccccc2)c2ccccc2)CC1")
99.1
>>> quantitative_readout("CC(=O)Nc1cc2c3c(cccc3c1)-c1ccccc1-2")
44.8
>>> quantitative_readout("COCCCNc1c2ccccc2nc2ccccc12")
12.5
>>> quantitative_readout("O=C(CCN1CCCN(c2cnc3ccccc3n2)CC1)c1csc2ccccc12")
34
>>> quantitative_readout("c1ccc2c(c1)-c1ccccc1C2NC1=NCCO1")
36.3
>>> quantitative_readout("COc1cc2c(cc1[N+](=O)[O-])C(=O)C(Br)(Br)CCC2")
17
>>> quantitative_readout("COc1c(B(O)O)cccc1-c1nc2c(F)cc3n[nH]c(C)c3c2c2c1CCCC2")
2.57
>>> quantitative_readout("CCN(CC)CCSc1c(C(C)=O)c(=O)n(-c2ccccc2)c(=S)n1-c1ccccc1")
5.8
